Target: rNav1.2 sodium channels (Rattus norvegicus)
Construct: host or cells: HEK-293
Test: QPatch automated patch clamp, inhibition of sodium currents evoked by 5 Hz trains at three extracellular pH values
Format: cell-based
Conditions: pH=8.6; cc 300 mM; read-out: Apparent Affinity
property-measured: Kd (µM)

compound	number
O=C1NC(=O)C(c2ccccc2)(c2ccccc2)N1	646
Nc1nnc(-c2cccc(Cl)c2Cl)c(N)n1	821
Cc1cccc(C)c1OCC(C)N (stereo not drawn)	57.3
NC(=O)N1c2ccccc2C=Cc2ccccc21 [carbamazepine]	543
O=C(NCC1CCCCN1)c1cc(OCC(F)(F)F)ccc1OCC(F)(F)F (stereo not drawn) [flecainide]	17.8
CCN(CC)CC(=O)Nc1c(C)cccc1C	515

----------
Biological target: rNav1.2 sodium channels (Rattus norvegicus, UniProt P04775)
Construct: host or cells: HEK-293
Sequence (P04775 whole entry): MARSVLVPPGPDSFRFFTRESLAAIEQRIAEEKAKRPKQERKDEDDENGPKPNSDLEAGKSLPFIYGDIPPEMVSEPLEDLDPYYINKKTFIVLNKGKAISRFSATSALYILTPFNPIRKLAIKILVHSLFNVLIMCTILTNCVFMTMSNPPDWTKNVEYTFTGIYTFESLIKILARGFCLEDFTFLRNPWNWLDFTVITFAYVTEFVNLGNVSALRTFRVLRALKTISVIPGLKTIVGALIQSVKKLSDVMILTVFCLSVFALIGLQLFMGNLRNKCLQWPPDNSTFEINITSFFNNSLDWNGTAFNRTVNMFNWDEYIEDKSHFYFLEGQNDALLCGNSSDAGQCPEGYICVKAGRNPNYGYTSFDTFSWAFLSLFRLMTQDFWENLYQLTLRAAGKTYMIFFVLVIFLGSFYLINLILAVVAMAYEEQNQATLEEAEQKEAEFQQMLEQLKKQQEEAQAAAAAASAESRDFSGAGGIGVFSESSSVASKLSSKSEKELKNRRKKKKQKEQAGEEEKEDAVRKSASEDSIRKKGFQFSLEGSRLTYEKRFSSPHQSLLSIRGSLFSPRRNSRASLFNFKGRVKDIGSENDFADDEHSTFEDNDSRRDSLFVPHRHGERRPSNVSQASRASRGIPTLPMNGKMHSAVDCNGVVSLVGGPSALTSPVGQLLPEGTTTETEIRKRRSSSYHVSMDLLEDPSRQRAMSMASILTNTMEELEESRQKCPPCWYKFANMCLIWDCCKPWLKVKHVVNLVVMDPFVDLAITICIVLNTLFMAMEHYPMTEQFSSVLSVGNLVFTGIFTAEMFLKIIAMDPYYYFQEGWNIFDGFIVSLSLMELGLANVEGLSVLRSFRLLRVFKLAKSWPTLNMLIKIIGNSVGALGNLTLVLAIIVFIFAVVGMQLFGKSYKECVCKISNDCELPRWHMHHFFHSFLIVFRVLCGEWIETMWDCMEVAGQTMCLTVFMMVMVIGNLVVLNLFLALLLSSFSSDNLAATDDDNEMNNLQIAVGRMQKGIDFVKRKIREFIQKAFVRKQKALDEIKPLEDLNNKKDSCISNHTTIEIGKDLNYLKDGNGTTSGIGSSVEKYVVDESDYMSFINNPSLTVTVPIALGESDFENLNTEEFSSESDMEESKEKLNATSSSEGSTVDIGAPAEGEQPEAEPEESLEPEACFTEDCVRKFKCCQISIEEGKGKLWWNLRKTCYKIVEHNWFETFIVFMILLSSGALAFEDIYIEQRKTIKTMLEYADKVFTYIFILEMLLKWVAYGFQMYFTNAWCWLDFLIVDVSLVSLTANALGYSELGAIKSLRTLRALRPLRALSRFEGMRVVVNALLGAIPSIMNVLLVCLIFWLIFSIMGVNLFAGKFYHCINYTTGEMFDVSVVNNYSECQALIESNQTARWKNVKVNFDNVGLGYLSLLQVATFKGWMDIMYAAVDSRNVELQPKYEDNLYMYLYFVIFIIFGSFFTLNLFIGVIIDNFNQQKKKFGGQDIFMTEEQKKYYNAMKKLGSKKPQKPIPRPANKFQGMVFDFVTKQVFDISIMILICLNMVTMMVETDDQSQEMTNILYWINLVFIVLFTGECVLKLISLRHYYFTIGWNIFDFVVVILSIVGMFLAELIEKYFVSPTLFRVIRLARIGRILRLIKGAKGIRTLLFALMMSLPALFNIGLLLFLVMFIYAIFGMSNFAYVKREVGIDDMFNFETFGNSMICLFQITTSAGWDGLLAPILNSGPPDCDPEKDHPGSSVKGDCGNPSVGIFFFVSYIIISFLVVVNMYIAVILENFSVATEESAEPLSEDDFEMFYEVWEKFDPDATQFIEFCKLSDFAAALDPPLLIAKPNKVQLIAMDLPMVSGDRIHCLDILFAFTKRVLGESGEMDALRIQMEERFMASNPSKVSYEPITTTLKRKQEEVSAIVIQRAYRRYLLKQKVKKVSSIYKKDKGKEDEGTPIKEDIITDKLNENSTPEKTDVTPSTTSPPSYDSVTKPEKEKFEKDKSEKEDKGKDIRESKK
Test: QPatch automated patch clamp, inhibition of sodium currents evoked by 5 Hz trains at three extracellular pH values
Assay type: cell-based
Conditions: Ward's method on 18 variables of affinity, reversibility, onset
property-measured: class of pH-dependence pattern (cluster analysis)

compound	result
CC12CC3CC(C)(C1)CC(N)(C3)C2 [memantine]	Class F
Nc1nnc(-c2cccc(Cl)c2Cl)c(N)n1 [lamotrigine]	Class A
Cc1ccc(C(=O)C(C)CN2CCCCC2)cc1 (stereo not shown) [tolperisone]	Class F
CNCCCN1c2ccccc2CCc2ccccc21 [desipramine]	Class C
C[Si](C)(Cc1ccc(F)cc1)CN1CCCCC1 [silperisone]	Class F
O=C1NC(=O)C(c2ccccc2)(c2ccccc2)N1 [phenytoin]	Class A
CNCCC(Oc1ccccc1OC)c1ccccc1 (stereo not shown) [nisoxetine]	Class F
CN(C)CCC=C1c2ccccc2CCc2ccccc21 [amitriptyline]	Class C

----------
Target: rNav1.2 sodium channels (Rattus norvegicus, UniProt P04775)
Construct: host or cells: HEK-293
Assay: QPatch automated patch clamp, inhibition of sodium currents evoked by 5 Hz trains at three extracellular pH values
Assay type: cell-based
Details: pH=6.0; cc 100 mM
Let's look at some compounds and their measured Reversibility.

compound	assay-target	Reversibility
COc1ccc(C(CN(C)C)C2(O)CCCCC2)cc1 (centres unmarked)	rNav1.2 sodium channels (Rattus norvegicus, UniProt P04775)	0.18
COc1ccccc1OCC(O)CN1CCN(CC(=O)Nc2c(C)cccc2C)CC1 (centres unmarked)	rNav1.2 sodium channels (Rattus norvegicus, UniProt P04775)	0.76
CCCCN1CCCCC1C(=O)Nc1c(C)cccc1C (centres unmarked)	rNav1.2 sodium channels (Rattus norvegicus, UniProt P04775)	0.64
Cc1ccc(C(=O)C(C)CN2CCCCC2)cc1 (centres unmarked)	rNav1.2 sodium channels (Rattus norvegicus, UniProt P04775)	0.65
CC12CC3CC(C)(C1)CC(N)(C3)C2 [memantine]	rNav1.2 sodium channels (Rattus norvegicus, UniProt P04775)	0.89

----------
Let's look at some compounds and their measured τonset.
Target: rNav1.2 sodium channels (Rattus norvegicus)
Construct: host or cells: HEK-293
Test: QPatch automated patch clamp, inhibition of sodium currents evoked by 5 Hz trains at three extracellular pH values
Type: cell-based
Conditions: pH 8.6; concentration (lidocaine 300 μM, memantine 30 μM)
property-measured: τonset (s)

compound	unit-annotation	number
Nc1nnc(-c2cccc(Cl)c2Cl)c(N)n1 [lamotrigine]	s	16.00
CNCCCN1c2ccccc2CCc2ccccc21 [desipramine]	s	26.92
COc1ccccc1OCC(O)CN1CCN(CC(=O)Nc2c(C)cccc2C)CC1 (stereo not shown) [ranolazine]	s	18.00
Nc1c(Br)cc(Br)cc1CN[C@H]1CC[C@H](O)CC1 [ambroxol]	s	11.40
Cc1cccc(C)c1OCC(C)N (stereo not shown) [mexiletine]	s	11.20
CCc1nn(CCCN2CCN(c3cccc(Cl)c3)CC2)c(=O)n1CCOc1ccccc1 [nefazodone]	s	14.60
CN(C)CCC=C1c2ccccc2CCc2ccccc21 [amitriptyline]	s	14.70
CCN(CC)CC(=O)Nc1c(C)cccc1C [lidocaine]	s	4.86
O=C1NC(=O)C(c2ccccc2)(c2ccccc2)N1 [phenytoin]	s	20.00
Cc1ccc(C(=O)C(C)CN2CCCCC2)cc1 (stereo not shown) [tolperisone]	s	5.20

----------
Target: rNav1.2 sodium channels (Rattus norvegicus, UniProt P04775)
Construct: host or cells: HEK-293
Test: QPatch automated patch clamp, inhibition of sodium currents evoked by 5 Hz trains at three extracellular pH values
Assay type: cell-based
Settings: pH=6.0; cc 30 mM

compound	Reversibility
CC12CC3CC(C)(C1)CC(N)(C3)C2 [memantine]	0.82
CN(C)CCCN1c2ccccc2Sc2ccc(Cl)cc21	0.53
Cc1nc2sccn2c(=O)c1CCN1CCC(=C(c2ccc(F)cc2)c2ccc(F)cc2)CC1	0.36
CCc1nn(CCCN2CCN(c3cccc(Cl)c3)CC2)c(=O)n1CCOc1ccccc1	0.51
Nc1nc2ccc(OC(F)(F)F)cc2s1	0.45
Fc1ccc([C@@H]2CCNC[C@H]2COc2ccc3c(c2)OCO3)cc1	0.65
CN(C)CCC=C1c2ccccc2CCc2ccccc21	0.74
CNCCCN1c2ccccc2CCc2ccccc21	0.64

----------
Target: rNav1.2 sodium channels (Rattus norvegicus, UniProt P04775)
Construct: host or cells: HEK-293
Assay: QPatch automated patch clamp, inhibition of sodium currents evoked by 5 Hz trains at three extracellular pH values
Assay type: cell-based
Conditions: pH 7.3/8.6; cc 300 mM
So basically: Ratio Tau Offset at 0.9 or higher? That is rule met. Lower than 0.9? That is rule not met.

compound	group
Nc1nnc(-c2cccc(Cl)c2Cl)c(N)n1	rule not met
O=C(NCC1CCCCN1)c1cc(OCC(F)(F)F)ccc1OCC(F)(F)F (centres unmarked) [flecainide]	rule met
O=C1NC(=O)C(c2ccccc2)(c2ccccc2)N1	rule not met
NC(=O)N1c2ccccc2C=Cc2ccccc21 [carbamazepine]	rule met

----------
Target: rNav1.2 sodium channels (Rattus norvegicus)
Construct: host or cells: HEK-293
Test: QPatch automated patch clamp, inhibition of sodium currents evoked by 5 Hz trains at three extracellular pH values
Assay type: cell-based
Details: pH=7.3; cc 100 mM; read-out: Apparent Affinity

compound	Kd
CN1CCN2c3ncccc3Cc3ccccc3C2C1 (stereo not shown) [mirtazapine]	141 µM
Nc1c(Br)cc(Br)cc1CN[C@H]1CC[C@H](O)CC1 [ambroxol]	88.7 µM
CCCCN1CCCCC1C(=O)Nc1c(C)cccc1C (stereo not shown) [bupivacaine]	64.2 µM
Cc1ccc(C(=O)C(C)CN2CCCCC2)cc1 (stereo not shown) [tolperisone]	275 µM
COc1ccccc1OCC(O)CN1CCN(CC(=O)Nc2c(C)cccc2C)CC1 (stereo not shown) [ranolazine]	225 µM
C[Si](C)(Cc1ccc(F)cc1)CN1CCCCC1 [silperisone]	137 µM
CC12CC3CC(C)(C1)CC(N)(C3)C2 [memantine]	236 µM

----------
Let's look at some compounds and their measured τoffset.
Target: rNav1.2 sodium channels (Rattus norvegicus)
Construct: host or cells: HEK-293
Test: QPatch automated patch clamp, inhibition of sodium currents evoked by 5 Hz trains at three extracellular pH values
Format: cell-based
Settings: pH 7.3; concentration (lidocaine 300 μM, memantine 30 μM)

compound	τoffset
Nc1c(Br)cc(Br)cc1CN[C@H]1CC[C@H](O)CC1	11.20 s
Cc1ccc(C(=O)C(C)CN2CCCCC2)cc1 (stereo not shown)	12.90 s
CN1CCN2c3ncccc3Cc3ccccc3C2C1 (stereo not shown)	13.00 s
Fc1ccc([C@@H]2CCNC[C@H]2COc2ccc3c(c2)OCO3)cc1	37.75 s
CCCCN1CCCCC1C(=O)Nc1c(C)cccc1C (stereo not shown)	20.80 s
NC(=O)N1c2ccccc2C=Cc2ccccc21 [carbamazepine]	10.01 s
COc1ccccc1OCC(O)CN1CCN(CC(=O)Nc2c(C)cccc2C)CC1 (stereo not shown)	24.20 s
O=C1NC(=O)C(c2ccccc2)(c2ccccc2)N1	17.32 s
CC12CC3CC(C)(C1)CC(N)(C3)C2 [memantine]	21.60 s
Nc1nnc(-c2cccc(Cl)c2Cl)c(N)n1	13.40 s
CN(C)CCCN1c2ccccc2Sc2ccc(Cl)cc21	28.40 s
Cc1cccc(C)c1OCC(C)N (stereo not shown)	19.60 s
CNCCCN1c2ccccc2CCc2ccccc21	57.40 s
CN(C)CCC=C1c2ccccc2CCc2ccccc21	19.66 s
CCc1nn(CCCN2CCN(c3cccc(Cl)c3)CC2)c(=O)n1CCOc1ccccc1	13.50 s
C[Si](C)(Cc1ccc(F)cc1)CN1CCCCC1	15.00 s
Cc1nc2sccn2c(=O)c1CCN1CCC(=C(c2ccc(F)cc2)c2ccc(F)cc2)CC1	20.40 s
COc1ccc(C(CN(C)C)C2(O)CCCCC2)cc1 (stereo not shown)	9.20 s
O=C(NCC1CCCCN1)c1cc(OCC(F)(F)F)ccc1OCC(F)(F)F (stereo not shown) [flecainide]	68.00 s
Nc1nc2ccc(OC(F)(F)F)cc2s1	21.40 s
CCN(CC)CC(=O)Nc1c(C)cccc1C	7.59 s
CNCCC(Oc1ccccc1OC)c1ccccc1 (stereo not shown)	30.82 s
